Ref: PubChem BioAssay (NCI)

Please provide measured TGI for the entries that follow.
Test system: HS 578T breast
experiment: NCI tumour cell line growth inhibition, 48 h

Before answering, review these 6 worked examples.
> print(dat)
                                   compound  target.or.system  reported.property  measured.value
1  CC1(C)COP(=S)(c2ccccn2)O[C@@H]1c1ccccc1 (stereo partly specified)    HS 578T breast                TGI        > 100 µM
2  CC1=NN(c2cccc(Cl)c2)C2(C1=Cc1ccccc1)C(Cl)C(=O)N2c1nc2ccccc2s1 (stereo unspecified)    HS 578T breast                TGI        > 100 µM
3        Cn1c(-c2cccc(N)c2)[n+](C)c2ccccc21    HS 578T breast                TGI        > 100 µM
4  O=C1CCC/C=C\C[C@H]2C=CC(=O)/C2=C/C[C@H](CCc2cccc(C(F)(F)F)c2)O1    HS 578T breast                TGI         56.7 µM
5     CC(C)N(Cc1c(F)cccc1F)c1ccc(CO)c(Cl)c1    HS 578T breast                TGI         40.8 µM
6        C#CCCCCC#Cc1ccccc1C(=O)C=[N+]=[N-]    HS 578T breast                TGI        > 100 µM

Each compound below has a reported value. Please supply its TGI.
1. O=C(O)CNCP(=O)(O)O
2. COc1ccc2c(c1)c1c(C)c3cnccc3c(C)c1n2CCCN
3. O=C(NC1CCCCC1)OCc1c(COC(=O)NC2CCCCC2)c(-c2ccc(Cl)c(Cl)c2)n2c1CCC2
4. O=C(CCN1CCOCC1)c1ccc(Oc2ccc(F)cc2)cc1
5. CCOC(=O)C(C)c1nc2cc3cccnc3c(Cl)c2[nH]c1=O (stereo unspecified)

["> 100 µM", "0.953 µM", "21.4 µM", "40.8 µM", "> 100 µM"]
